B1: OAS1 (parent)
chain: TPAKSLDKFIEDYLLPDTCFRMQI

variants of: B1; assay: protein stability index of a GFP-peptide fusion (GPS, HEK-293T) (PSI 1-6); higher = more stable; details: c terminus: a fixed tail appended;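 note: lentivirally expressed fusions sorted by FACS into six bins by GFP to DsRed ratio, PSI derived from sequencing read proportions per bin multiplied by bin number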
Each record gets a class by protein stability index: I = under 2, II = from 2 up to 3, III = 3 and over

residueSequence: TPAKSLDKFIEDYLLPDTRFRMQI [C19R]
group: III

residueSequence: TTAKSLDKFIEDYLLPDTCFRMQI [P2T]
group: II

residueSequence: TPAKSLDKEIEDYLLPDTCFRMQI [F9E]
group: I

residueSequence: TPAKSLDKFIEDYLLPDTCFRMRI [Q23R]
group: III

residueSequence: TPANSLDKFIEDYLLPDTCFRMQI [K4N]
group: II

residueSequence: TPAKSLDKFPEDYLLPDTCFRMQI [I10P]
group: I

residueSequence: TPAKSLDKFIEDYLLPDTCFRMDI [Q23D]
group: II

residueSequence: TPAKSLDKFIDDYLLPDTCFRMQI [E11D]
group: II

residueSequence: KPAKSLDKFIEDYLLPDTCFRMQI [T1K]
group: II

residueSequence: TPAKSLRKFIEDYLLPDTCFRMQI [D7R]
group: II

residueSequence: TPAKSLDKFIMDYLLPDTCFRMQI [E11M]
group: III

residueSequence: TPAKSLDKAIEDYLLPDTCFRMQI [F9A]
group: II

residueSequence: TPAKSLDKFSEDYLLPDTCFRMQI [I10S]
group: I

residueSequence: TPAKSLDKFIEWYLLPDTCFRMQI [D12W]
group: II

residueSequence: TPAKFLDKFIEDYLLPDTCFRMQI [S5F]
group: I

residueSequence: TPAKSLDKFGEDYLLPDTCFRMQI [I10G]
group: II

The reported numbers originate from the supplement of paper PMC10567573.
